- tested system: UniProt P07384
- Sequence (P07384 whole entry): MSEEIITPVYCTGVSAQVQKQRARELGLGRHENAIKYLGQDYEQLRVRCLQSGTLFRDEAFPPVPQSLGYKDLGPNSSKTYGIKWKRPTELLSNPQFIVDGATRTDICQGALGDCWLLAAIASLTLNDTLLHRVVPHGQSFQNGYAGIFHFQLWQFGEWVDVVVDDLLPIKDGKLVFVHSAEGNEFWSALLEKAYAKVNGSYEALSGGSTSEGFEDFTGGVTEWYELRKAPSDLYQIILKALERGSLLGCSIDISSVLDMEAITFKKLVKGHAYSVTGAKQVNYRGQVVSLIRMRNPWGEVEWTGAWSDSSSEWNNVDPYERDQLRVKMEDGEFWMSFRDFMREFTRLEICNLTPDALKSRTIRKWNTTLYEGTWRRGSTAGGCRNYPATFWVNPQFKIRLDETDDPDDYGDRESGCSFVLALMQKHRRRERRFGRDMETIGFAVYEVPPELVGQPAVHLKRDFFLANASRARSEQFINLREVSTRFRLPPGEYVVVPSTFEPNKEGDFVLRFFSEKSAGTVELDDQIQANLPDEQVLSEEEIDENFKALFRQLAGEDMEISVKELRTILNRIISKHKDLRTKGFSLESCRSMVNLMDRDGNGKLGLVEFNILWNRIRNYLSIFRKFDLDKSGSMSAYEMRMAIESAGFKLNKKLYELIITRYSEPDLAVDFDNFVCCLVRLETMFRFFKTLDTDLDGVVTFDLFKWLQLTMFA
- Sequence (P04632 whole entry partner): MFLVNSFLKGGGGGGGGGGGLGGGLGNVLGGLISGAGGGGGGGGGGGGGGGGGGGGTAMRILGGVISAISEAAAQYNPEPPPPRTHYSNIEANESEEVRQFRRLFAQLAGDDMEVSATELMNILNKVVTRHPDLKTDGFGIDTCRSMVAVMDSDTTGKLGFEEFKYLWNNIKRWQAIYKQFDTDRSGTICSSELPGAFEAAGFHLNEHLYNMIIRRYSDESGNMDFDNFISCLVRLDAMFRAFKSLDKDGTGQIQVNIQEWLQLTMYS

{"compound": "CCC(NC(=O)[C@H](CC(C)C)NC(=O)OCc1ccccc1)C(=O)C(=O)NCc1cc(OC)cc(OC)c1 (stereo partly shown)", "Ki (µM)": 0.124}

====

- tested system: rec human calpain‐2 (Homo sapiens, UniProt P17655)
- Sequence (P17655 1-700): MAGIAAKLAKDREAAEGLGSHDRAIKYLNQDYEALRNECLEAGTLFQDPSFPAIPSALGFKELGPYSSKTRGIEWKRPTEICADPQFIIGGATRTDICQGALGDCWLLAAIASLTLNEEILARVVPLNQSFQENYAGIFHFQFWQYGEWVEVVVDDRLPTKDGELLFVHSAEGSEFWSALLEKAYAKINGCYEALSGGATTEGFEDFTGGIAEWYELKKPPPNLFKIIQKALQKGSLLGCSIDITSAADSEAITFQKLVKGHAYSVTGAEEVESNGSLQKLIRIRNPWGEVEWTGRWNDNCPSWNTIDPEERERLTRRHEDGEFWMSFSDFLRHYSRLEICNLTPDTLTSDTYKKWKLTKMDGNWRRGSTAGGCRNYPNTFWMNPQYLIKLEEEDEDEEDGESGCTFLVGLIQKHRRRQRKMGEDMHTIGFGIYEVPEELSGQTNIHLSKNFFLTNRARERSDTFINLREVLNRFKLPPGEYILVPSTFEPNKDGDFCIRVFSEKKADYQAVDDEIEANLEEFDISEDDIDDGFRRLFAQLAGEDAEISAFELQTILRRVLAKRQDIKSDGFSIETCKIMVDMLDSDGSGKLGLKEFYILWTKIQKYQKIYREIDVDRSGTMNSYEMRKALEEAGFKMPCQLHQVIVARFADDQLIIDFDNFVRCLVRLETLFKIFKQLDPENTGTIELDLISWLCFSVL
- protocol notes: In vitro calpain assay
- run parameters: read-out: K i for rec human calpain‐2; recombinant human calpain‐2; means ± SEM of three experiments or single experiment

{"compound": "CCC(NC(=O)[C@H](CC(C)C)NC(=O)OCc1ccccc1)C(=O)C(=O)NCc1cc(OC)cc(OC)c1 (stereo partly shown) [Compound C2I, Z‐Leu‐Abu‐CONH‐CH2‐C6H3(3,5‐(OMe)2)]", "Ki, µM": 0.055}
